The reported numbers originate from the supplement of paper PMC10724198.

System: Saccharomyces cerevisiae
experiment-description: protein stability index of tFT-peptide fusion (C-terminal peptide) (PSI (0-1 scale)); higher = more stable (slower turnover)
reported-conditions: genetic background: das1 deletion; temperature: 30 C
parameter-measured: protein stability index
// print number alone

Could you share which protein stability index value was measured for IAQNVSRSSQQV [YMD8 C-terminal 12 aa] ?
0.688

Look at this sequence and give its reported protein stability index. EPLKESIFNQLK [MRPL23 C-terminal 12 aa]
0.694

What value of protein stability index has been recorded for this entry: LKQLDNLKSQLN [ARG4 C-terminal 12 aa]
0.7

Param item = EKPKKKEVEKTA [NOG2 C-terminal 12 aa] ; retrieve measured protein stability index.
0.684

# query: protein stability index of entry ALGRKTSNGGRI [MKS1 C-terminal 12 aa]
0.716

Name the reported protein stability index value associated with the sequence ILHERNIPLEKI [TPT1 C-terminal 12 aa]
0.709

What value of protein stability index has been reported for the following sequence? NLDNLFMASSLI [AIM6 C-terminal 12 aa]
0.713

Reported protein stability index for KLDLPNVFHKKG [CHS2 C-terminal 12 aa] : what is it?
0.713

Which protein stability index value is on record for FHLRHHKGAEEH [ATP17 C-terminal 12 aa] ?
0.708

protein stability index for GSSGRLTASPVY [PEX2 C-terminal 12 aa] ?
0.696

Reported protein stability index, sequence CLFGMAWLSTIL [YIP4 C-terminal 12 aa] : ____
0.661

For the sequence EYEPFVMYIINL [VMA5 C-terminal 12 aa] , what protein stability index is on record?
0.606

May I ask what protein stability index has been recorded for INNTDITLYNDV [YPL068C C-terminal 12 aa] ?
0.707

I would be grateful if you could share the reported protein stability index for LEDHTPPEDKPN [QCR10 C-terminal 12 aa] .
0.718

Quick one: protein stability index of YGISSSVLKGST [PHO87 C-terminal 12 aa] ?
0.715

Give its protein stability index value. Item: TFVDDKLKELPQ [PTP3 C-terminal 12 aa]
0.719

Give the measured protein stability index of YDKESDDRKCCL [CTR3 C-terminal 12 aa] .
0.681

I have this sequence here, IEALYKLVEEKM [NQM1 C-terminal 12 aa] , and I need its recorded protein stability index.
0.701

For the sequence ECPRFSNKHGRN [YDR169C-A C-terminal 12 aa] , what protein stability index is on record?
0.701

I would be grateful if you could share the reported protein stability index for YIDDIDQTIPKY [UBA4 C-terminal 12 aa] .
0.744

Request the reported protein stability index associated with KKSKPRANKLTI [ECM2 C-terminal 12 aa]
0.713

# protein stability index lookup, item VVIIVPIVVHFS [SNC2 C-terminal 12 aa]
0.351

For the sequence SQPDYKYLFDTQ [YRM1 C-terminal 12 aa] , what protein stability index is on record?
0.71

# lookup: protein stability index of IYKEKYMKQGPK [DSF2 C-terminal 12 aa]
0.701

Give the measured protein stability index of KEMWITGKIVED [IML1 C-terminal 12 aa] .
0.672

###

Test system: Saccharomyces cerevisiae
experiment-description: protein stability index of tFT-peptide fusion in deletion strain of DAS1 (PSI (0-1 scale)); higher = more stable (slower turnover)
Field: protein stability index. Provide a value for each of the sequences that follow.

Fill in the blank: the reported protein stability index of `CMSCGYKFRTNN` is ____.
0.71

So what's the measured protein stability index for this one? `CTSCGYKFATNN`
0.695

Look at this sequence and give its reported protein stability index. `PDKRNHLIKLYN`
0.599

May I ask what protein stability index has been recorded for `FSMIWTFRYWVN` ?
0.301

I'd like to know its protein stability index. The sequence in question is `LVVYLSCVADIN`
0.168

###

System: Saccharomyces cerevisiae
experiment-description: protein stability index of tFT-peptide fusion (C-terminal peptide) (PSI (0-1 scale)); higher = more stable (slower turnover)
reported-conditions: genetic background: wild type; temperature: 30 C
parameter-measured: protein stability index

Bench note: what protein stability index did `HSPPPSLGPVPA` show?
0.664

Which protein stability index is reported for this sequence? `KIKNKKNKCKKK`
0.751

Record request: protein stability index value, item `FYLFPSLPLLLL`
0.452

// query protein stability index value for entry `PPSLLLCPLFTS`
0.602

Which protein stability index value belongs to `VLSCVWFVVVGV` ?
0.36

Request the reported protein stability index associated with `LGVCVGFRLLWV`
0.579

Value lookup for protein stability index; key = `CCGDAVVGPRVV`
0.711

State the recorded protein stability index for this entry: `CFLSWSLRFFIL`
0.206

Given the entry `WGPGGVAWGAWW` , report its measured protein stability index.
0.784

Which value of protein stability index has been reported for `PQSPVCDLESRL` in the records?
0.666

For the sequence `DSTLCSCSLHTS` , what protein stability index is on record?
0.777

Requested field: protein stability index. Item: `GERWGGGRAAET`
0.714

Endpoint output: protein stability index of `PPAPTAPPLSSH` . Value?
0.681

// returns reported protein stability index for input `PLPAAPPILFSL`
0.731

Looking for the measured protein stability index of `LARGGASIGGES` , can you help?
0.701

Give the measured protein stability index of `GGGCGGGGSSCA` .
0.654

Tell me the measured protein stability index of `PGHPGSCPRRNG` , please.
0.645

What does the record list as protein stability index for `LGSYIFVVVIYF` ?
0.283

I am curious: what protein stability index value has been reported for `GVSCGWVAHARW` ?
0.694

###

System: Saccharomyces cerevisiae
experiment-description: protein stability index of tFT-peptide fusion (C-terminal peptide) (PSI (0-1 scale)); higher = more stable (slower turnover)
reported-conditions: genetic background: wild type; temperature: 30 C
parameter-measured: protein stability index
Reply briefly: the number, and no unit.

Return protein stability index measured with Saccharomyces cerevisiae given this sequence: `IPSCAGLPLSLS`
0.713

Provide value of protein stability index for this record tested with Saccharomyces cerevisiae: `PLSFSPSLRYPP`
0.659

// fetch Saccharomyces cerevisiae protein stability index for `PPTPPPPSPLAP`
0.73

Observed protein stability index on Saccharomyces cerevisiae for `LWFWAVECGLGG` , please.
0.713

Record lookup: for Saccharomyces cerevisiae, what protein stability index belongs to `SPGRSSTLPPVF` ?
0.71

Lookup: protein stability index / Saccharomyces cerevisiae / `GGSVGGGTGWRM`
0.65

Can you look up protein stability index on Saccharomyces cerevisiae for `LVRGKGGRGIEG` ?
0.698

Query the reported protein stability index for Saccharomyces cerevisiae; item: `LRCSVKQNLGIV`
0.655

Look up protein stability index with Saccharomyces cerevisiae for this sequence: `CFFGSILYLCFG`
0.533

Enter reported protein stability index observed with Saccharomyces cerevisiae for `NVWGTGGMCTFV`
0.706

Saccharomyces cerevisiae / protein stability index / `GGWGGKLVGRMG` : value?
0.708

# query: protein stability index | item `GVYFIGISRCVC` | system: Saccharomyces cerevisiae
0.307

Hello, I am looking for reported protein stability index with Saccharomyces cerevisiae for `GMADVCRVGSRG` . Could you help?
0.674

Record `SIFLCRLQNLLI` : what is its protein stability index with Saccharomyces cerevisiae?
0.389

Please tell me: protein stability index of `RFPRSSPPHRSL` , system Saccharomyces cerevisiae?
0.717

Tell me reported protein stability index for `IKKNHKENKRKE` , tested with Saccharomyces cerevisiae.
0.666

Hi! What's the reported protein stability index for `GGELGGTGVGGG` on Saccharomyces cerevisiae?
0.688

Query for Saccharomyces cerevisiae: what protein stability index does the record show for `VRWLVFFLFLFG` ?
0.466

// lookup protein stability index | system=Saccharomyces cerevisiae | key= `IGVNEDSAIVCM`
0.562

###

Exercise: for every item that follows, state its recorded protein stability index.
System: Saccharomyces cerevisiae
experiment-description: protein stability index of tFT-peptide fusion (C-terminal peptide) (PSI (0-1 scale)); higher = more stable (slower turnover)
reported-conditions: genetic background: cdc53-1; temperature: 37 C
Could you respond with only the numeric value?

Bench note: what protein stability index did `ALLWEFVPCSVR` show?
0.52

// lookup protein stability index for `LCLPLYIRILSF`
0.052

What value of measured protein stability index is listed for `VLSCVWFVVVGV` ?
0.316

protein stability index for `LDLPFESGIACF` ?
0.297

What protein stability index value was documented for this sequence, `CRLRYSILWFRL` ?
0.0975

Which protein stability index value belongs to `FVWWFFFLSVVS` ?
0.306

What does the data say about its protein stability index? Entry: `VFLLCLGFLVFS`
0.341

Consider the sequence `MWFFFICYFLSV` and give its measured protein stability index.
0.361

Item `VFLYVYAVWFLV` has what recorded protein stability index?
0.228

Item under review: `WFCYFSLYVFLL` . Reported protein stability index?
0.149
